Provenance of the data: PubChem BioAssay (NCI)

Test system: 786-0 renal
Assay: NCI tumour cell line growth inhibition, 48 h
Give TGI for every item shown.
Answers are plain numbers, in µM.

C=C1C(=O)O[C@H]2[C@H]1CC/C(COC(=O)NCCc1cccc(OC)c1)=C\CC[C@@]1(C)O[C@@H]21: 3.07
CCc1nc2cc(/C=C/C(=O)NO)ccc2c(=O)n1CCc1ccc(OC)cc1: 6.28

State recorded TGI for all listed molecules.
1. O=C(/C=C\n1cnc(-c2cc(C(F)(F)F)cc(C(F)(F)F)c2)n1)N1CC(F)(F)C1
2. CN1CCN(CCCOc2cccc3nc(Nc4ccc(F)c(F)c4)ccc23)CC1
3. Cc1nc(Sc2nc3ccc([N+](=O)[O-])cc3s2)sc1C
4. COc1cc(S(=O)(=O)Nc2ccc(-c3csc(N4C(=O)C(Cl)C4c4cccs4)n3)cc2)ccc1Cl (centres undefined)

1. 6.12
2. 9.25
3. 6.1
4. 68.3
